Target: UniProtKB P03956
Sequence (P03956 100-469): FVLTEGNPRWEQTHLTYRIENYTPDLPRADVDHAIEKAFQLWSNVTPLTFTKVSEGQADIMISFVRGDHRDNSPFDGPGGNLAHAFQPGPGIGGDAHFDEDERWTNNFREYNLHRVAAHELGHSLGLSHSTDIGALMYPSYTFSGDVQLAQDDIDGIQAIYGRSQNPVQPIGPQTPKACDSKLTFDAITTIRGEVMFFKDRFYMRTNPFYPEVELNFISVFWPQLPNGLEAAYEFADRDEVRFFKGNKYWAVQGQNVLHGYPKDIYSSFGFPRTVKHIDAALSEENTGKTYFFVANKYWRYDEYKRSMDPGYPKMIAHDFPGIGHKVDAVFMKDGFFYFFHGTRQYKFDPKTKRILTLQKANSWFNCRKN
Structures can show the parent of a compound that is named as a salt.
test-readout: Ki (nM)
Number in nM, nothing else.

Look up and state reported Ki for COc1ccc(Oc2ccc(S(=O)(=O)N3CCN(S(C)(=O)=O)CC3C(=O)NO)cc2)cc1 (racemic)
16

Look up and state reported Ki for CS(=O)(=O)N1CCN(S(=O)(=O)c2ccc(Oc3ccc(F)cc3)cc2)[C@@H](C(=O)NO)C1
4.7

Look up and state reported Ki for CC(C)(C)OC(=O)N1CCN(S(=O)(=O)c2ccc(Oc3ccc(F)cc3)cc2)[C@@H](C(=O)NO)C1
18

Look up and state reported Ki for CC1(C)[C@H](C(=O)NO)N(S(=O)(=O)c2ccc(Oc3ccncc3)cc2)CC[S@+]1[O-] [Example 19(a), 1(S), 3(S) isomer]
31

Look up and state reported Ki for CC1(C)SCCN(S(=O)(=O)c2ccc(Oc3ccccn3)cc2)[C@H]1C(=O)NO
12

Look up and state reported Ki for O=C(NO)[C@@H]1C[S@+]([O-])CCN1S(=O)(=O)c1ccc(Oc2ccc(Br)cc2)cc1 (racemic)
23

Look up and state reported Ki for O=C(NO)[C@H]1CNCCN1S(=O)(=O)c1ccc(Oc2ccc(Cl)cc2)cc1 [Example 10(a), hydrochloride]
34
